Biological target: Endothelial lipase (EL) (Homo sapiens (Human), UniProt Q9Y5X9)
Sequence (Q9Y5X9 21-500): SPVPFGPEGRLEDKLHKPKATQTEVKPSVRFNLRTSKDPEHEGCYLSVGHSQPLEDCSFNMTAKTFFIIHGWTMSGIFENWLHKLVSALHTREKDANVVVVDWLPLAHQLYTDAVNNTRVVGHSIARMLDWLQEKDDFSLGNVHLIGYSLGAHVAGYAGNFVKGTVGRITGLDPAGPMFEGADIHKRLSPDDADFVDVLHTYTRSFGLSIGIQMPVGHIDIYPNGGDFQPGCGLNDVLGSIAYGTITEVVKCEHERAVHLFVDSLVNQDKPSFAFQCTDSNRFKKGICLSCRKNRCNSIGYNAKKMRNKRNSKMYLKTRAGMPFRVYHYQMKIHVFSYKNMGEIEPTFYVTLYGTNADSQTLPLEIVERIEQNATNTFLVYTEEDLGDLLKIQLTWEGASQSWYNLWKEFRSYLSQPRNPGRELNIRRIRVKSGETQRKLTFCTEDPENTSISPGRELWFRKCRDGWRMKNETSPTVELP
Assay: Endothelial lipase (EL) enzymatic assay with fluorescent substrate A10070 in DMPG vesicles
Format: biochemical
measured parameter: IC50 (nM)
Return type: number; implicit unit nM.

# return recorded IC50 for entry COCCS(=O)(=O)C(C(=O)NCC(=O)NC1CC1)c1nc2cc(C(F)(F)F)c(-c3ccnn3C)cc2s1 (stereo not drawn)
16

# return recorded IC50 for entry COCCS(=O)(=O)C(C(=O)NCC(=O)NC1CC1)c1nc2cc(C(F)(F)F)c(-c3cnnc(C)c3)cc2s1 (stereo not drawn)
229

# return recorded IC50 for entry COCCS(=O)(=O)C(C(=O)NCC(=O)NC1CC1)c1nc2c(F)cc(-c3ccc(C(=O)N4CCOCC4)cc3)cc2s1 (stereo not drawn)
11

# return recorded IC50 for entry CCCCCS(=O)(=O)C(C(=O)NCC(=O)NC1CC1)c1nc2cc(F)c(-c3ccc(NC(=O)OCc4ccccc4)cc3)cc2s1 (stereo not drawn)
1

# return recorded IC50 for entry COCCS(=O)(=O)C(C(=O)NCC(=O)NC1CC1)c1nc2ccc(-c3ccc(Cl)cn3)cc2s1 (stereo not drawn)
247

# return recorded IC50 for entry COC(=O)N(C)c1cccc(-c2ccc3nc(C(C(=O)NCC(=O)NC4CC4)S(C)(=O)=O)sc3c2)c1 (stereo not drawn)
19

# return recorded IC50 for entry COCCS(=O)(=O)C(C(=O)NCC(=O)Nc1ccccc1)c1nc2ccc(-c3ccc(F)nc3)cc2s1 (stereo not drawn)
3

# return recorded IC50 for entry CN(C)S(=O)(=O)C(C(=O)NCC(=O)NC1CC1)c1nc2cc(F)c(-c3ccc(-c4ccccc4)nc3)cc2s1 (stereo not drawn)
16

# return recorded IC50 for entry COCCS(=O)(=O)C(C(=O)NCC(=O)NC1CC1)c1nc2ccc(-c3ccc(C(=O)N4CCO[C@@H](C)C4)cc3)cc2s1 (stereo partly drawn)
11

# return recorded IC50 for entry Cc1cc(-c2cc3sc(C(C(=O)NCC(=O)NC4CC4)S(C)(=O)=O)nc3cc2F)ccn1 (stereo not drawn)
11

# return recorded IC50 for entry COCCS(=O)(=O)C(C(=O)NCC(=O)NC1CC1)c1nc2cc(F)c(-c3ccc4cnn(C)c4c3)cc2s1 (stereo not drawn)
5

# return recorded IC50 for entry COCCS(=O)(=O)C(C(=O)NCC(=O)NC1CC1)c1nc2ccc(-c3cnc(F)c(C)c3)cc2s1 (stereo not drawn)
36

# return recorded IC50 for entry COCCS(=O)(=O)C(C(=O)NCC(=O)NC1CC1)c1nc2cc(-c3ccccc3)c(F)cc2s1 (stereo not drawn)
3

# return recorded IC50 for entry COCCS(=O)(=O)C(C(=O)NCC(=O)NC1CC1)c1nc2cc(-c3ccc4c(c3)CC(=O)N4)c(F)cc2s1 (stereo not drawn)
42

# return recorded IC50 for entry COCCS(=O)(=O)C(C(=O)NCC(=O)NC1CC1)c1nc2ccc(-c3ccc(NC(C)=O)cc3)cc2s1 (stereo not drawn)
8

---

For each record, write down the corresponding IC50.
Molecular target: Endothelial lipase (EL) (Homo sapiens (Human), UniProt Q9Y5X9)
Experiment: Endothelial lipase (EL) enzymatic assay with fluorescent substrate A10070 in DMPG vesicles
Type: biochemical
# output: numeric value plus its unit

# return recorded IC50 for entry COCCS(=O)(=O)C(C(=O)NCC(=O)NC1CC1)c1nc2cc(Cl)c(-c3ccnn3C)cc2s1 (stereo not shown) [Example 107]
34 nM

# return recorded IC50 for entry Cc1cc(-c2cc(F)c3nc(C(C(=O)NCC(=O)NC4CC4)S(=O)(=O)N(C)C)sc3c2)cnn1 (stereo not shown) [Example 490]
207 nM

# return recorded IC50 for entry COCCS(=O)(=O)C(C(=O)NCC(=O)NC1CC1)c1nc2ccc(-c3ccc(C(=O)NCC(F)(F)F)cc3)cc2s1 (stereo not shown) [Example 97]
4 nM

# return recorded IC50 for entry Cc1ccn(-c2cccc(-c3ccc4nc(C(C(=O)NCC(=O)NC5CC5)S(C)(=O)=O)sc4c3)n2)n1 (stereo not shown) [Example 412]
14 nM

# return recorded IC50 for entry O=C(CNC(=O)C(c1nc2cc(F)c(-c3ccc(NC(=O)OCc4nccs4)cc3)cc2s1)S(=O)(=O)CCC(F)(F)F)NC1CC1 (stereo not shown) [Example 523]
6 nM

# return recorded IC50 for entry COCCS(=O)(=O)C(C(=O)NCC(=O)NC1CC1)c1nc2cc(F)c(-c3cnc(C)nc3)cc2s1 (stereo not shown) [Example 156]
11 nM

# return recorded IC50 for entry CS(=O)(=O)C(C(=O)NCC(=O)NC1CC1)c1nc2cc(F)c(-c3ccc(C(=O)NCCC#N)cc3)cc2s1 (stereo not shown) [Example 41]
5 nM

---

Target: Endothelial lipase (EL) (Homo sapiens (Human), UniProt Q9Y5X9)
Experiment: Endothelial lipase (EL) enzymatic assay with fluorescent substrate A10070 in DMPG vesicles
Assay type: biochemical
Details: reference compounds; EL from conditioned media of HT-1080 cells; 30 min preincubation at 37° C.
Description: Endothelial lipase (EL) and hepatic lipase (HL) activities were measured using a fluorescent substrate, A10070, (Invitrogen, CA) doped into an artificial vesicle containing DMPG (Avanti Polar Lipids) as the excipient. […] The enzymatic assay was measured using 384-well white Optiplates. […] The reaction rates were measured on a Gemini plate reader with an excitation wavelength of 490 nm and an emission wavelength of 530 nm. […]
pIC50: −log10 of the molar value.
measured parameter: pIC50

# return recorded pIC50 for entry CC(C)c1cc(CNC(=O)C(C)(C)c2nc3ccc(-c4ccccc4)cc3s2)on1 [Reference 2, reference compound]
< 4.21

---

Molecular target: Endothelial lipase (EL) (Homo sapiens (Human), UniProt Q9Y5X9)
Test: Endothelial lipase (EL) enzymatic assay with fluorescent substrate A10070 in DMPG vesicles
Format: biochemical
For each record, write down the corresponding IC50.
Return type: number; implicit unit nM.

Enter recorded IC50 with Endothelial lipase (EL) (Homo sapiens (Human), UniProt Q9Y5X9) for COCCS(=O)(=O)C(C(=O)NCC(=O)NC1(C)CCC1)c1nc2cc(-c3ccc(F)nc3)ccc2s1 (stereo not shown) here.
28

Enter recorded IC50 with Endothelial lipase (EL) (Homo sapiens (Human), UniProt Q9Y5X9) for COCCS(=O)(=O)C(C(=O)NCC(=O)NC1CC1)c1nc2cc(F)c(-c3ccc(NC(N)=O)cc3)cc2s1 (stereo not shown) here.
9

Enter recorded IC50 with Endothelial lipase (EL) (Homo sapiens (Human), UniProt Q9Y5X9) for COC(=O)N(C)c1ccc(-c2ccc3nc(C(C(=O)NCC(=O)NC4CC4)S(C)(=O)=O)sc3c2)cc1 (stereo not shown) here.
14

Enter recorded IC50 with Endothelial lipase (EL) (Homo sapiens (Human), UniProt Q9Y5X9) for CC(C)S(=O)(=O)C(C(=O)NCC(=O)NC1CC1)c1nc2c(F)cc(-c3ccc(N4CCCC4=O)cc3)cc2s1 (stereo not shown) here.
10

Enter recorded IC50 with Endothelial lipase (EL) (Homo sapiens (Human), UniProt Q9Y5X9) for CN(C)S(=O)(=O)C(C(=O)NCC(=O)NC1CC1)c1nc2c(F)cc(-c3ccccc3)cc2s1 (stereo not shown) here.
8

Enter recorded IC50 with Endothelial lipase (EL) (Homo sapiens (Human), UniProt Q9Y5X9) for Cc1cc(-c2cc3sc(C(C(=O)NCC(=O)NC4CC4)S(=O)(=O)c4cccc(Cl)c4)nc3cc2F)cnn1 (stereo not shown) here.
37

Enter recorded IC50 with Endothelial lipase (EL) (Homo sapiens (Human), UniProt Q9Y5X9) for COCCS(=O)(=O)C(C(=O)NCC(=O)NC1CC1)c1nc2cc(-c3cccc(-c4cc[nH]n4)c3)c(F)cc2s1 (stereo not shown) here.
12

---

For each record, write down the corresponding pIC50.
Molecular target: Endothelial lipase (EL) (Homo sapiens (Human), UniProt Q9Y5X9)
Assay: Endothelial lipase (EL) enzymatic assay with fluorescent substrate A10070 in DMPG vesicles
Assay type: biochemical
Worth noting: pIC50 values are minus log10 of concentrations stated in mol/L.

# return recorded pIC50 for entry Cc1cc(-c2cc3nc(C(C(=O)NCC(=O)NC4CC4)S(=O)(=O)C(C)C)sc3cc2F)cnn1 (stereo not shown) [Example 271]
7.35

# return recorded pIC50 for entry COCCS(=O)(=O)C(C(=O)NCC(=O)NC1CC1)c1nc2cc(C(F)(F)F)c(-c3ccc(C4CC4)nc3)cc2s1 (stereo not shown) [Example 164]
7.77

# return recorded pIC50 for entry O=C(CNC(=O)C(c1nc2cc(F)c(-c3ccc(NC(=O)OCc4ccccn4)cc3)cc2s1)S(=O)(=O)CCC(F)(F)F)NC1CC1 (stereo not shown) [Example 520]
8.70

# return recorded pIC50 for entry Cc1cnn(-c2cccc(-c3ccc4nc(C(C(=O)NCC(=O)NC5CC5)S(C)(=O)=O)sc4c3)n2)c1 (stereo not shown) [Example 413]
8.15

// provenance: patent US10173991B2
